# TARGET SYSTEM: BSA (UniProt P02769)
# Sequence (P02769 25-607 limits assumed): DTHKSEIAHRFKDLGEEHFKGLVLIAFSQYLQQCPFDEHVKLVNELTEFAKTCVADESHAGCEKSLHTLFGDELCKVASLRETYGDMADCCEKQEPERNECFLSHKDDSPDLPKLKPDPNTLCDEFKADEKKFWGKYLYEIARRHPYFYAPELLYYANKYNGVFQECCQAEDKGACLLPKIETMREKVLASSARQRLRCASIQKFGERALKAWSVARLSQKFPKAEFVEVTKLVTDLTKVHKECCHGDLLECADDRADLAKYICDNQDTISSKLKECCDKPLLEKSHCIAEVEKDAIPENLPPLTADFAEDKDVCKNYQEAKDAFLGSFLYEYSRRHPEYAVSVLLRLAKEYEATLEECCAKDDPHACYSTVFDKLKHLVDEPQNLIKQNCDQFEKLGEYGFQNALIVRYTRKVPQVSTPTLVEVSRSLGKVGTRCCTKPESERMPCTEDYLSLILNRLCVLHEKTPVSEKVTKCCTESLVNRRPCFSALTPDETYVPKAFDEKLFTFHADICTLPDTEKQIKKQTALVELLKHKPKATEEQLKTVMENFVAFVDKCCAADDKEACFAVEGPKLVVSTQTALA
# PROTOCOL TEXT: scFv ELISA
READOUT NAME: OD450 (OD450)

INSERT INTO results (binder, readout_value) VALUES
  ('PcOxP_DB01_A12 (scFv, V domains shown, scFv in periplasmic extract) VH: EVQLLESGGGLVQPGGSLRLSCAASGFGFSDFYMEWVRQAPGKGLEWVAASRNKWNDYTTEYADSVKGRFTISRDNSKNTLYLQMNSLRAEDTAVYYCARDYYGSSYWYYDVWGQGTLVTVSS VL: DIQMTQSPSSLSASVGDRVTITCTASESLYSSKHKVHYLAWYQQKPGKAPKLLIYGASNREIGVPSRFSGSGSGTDFTLTISSLQPEDFATYYCQQFYSYPLTFGGGTKVEIK', 0.09),
  ('PcOxP_DB01_G03 (scFv, V domains shown, scFv in periplasmic extract) VH: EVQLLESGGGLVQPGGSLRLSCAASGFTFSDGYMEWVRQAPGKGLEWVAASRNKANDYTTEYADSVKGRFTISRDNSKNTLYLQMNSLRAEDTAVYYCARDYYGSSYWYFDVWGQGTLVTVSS VL: DIVMTQSPDSLAVSLGERATINCTASTSLYSSKHKVHYLAWYQQKPGQPPKLLIYGASNRYIGVPDRFSGSGSGTDFTLTISSLQAEDVAVYYCAQFYTYPLTFGGGTKVEIK', 0.07);
